- system: DNA repair nuclease/redox regulator APEX1 (Homo sapiens) (UniProt P27695)
- Sequence (P27695 whole entry, looked up): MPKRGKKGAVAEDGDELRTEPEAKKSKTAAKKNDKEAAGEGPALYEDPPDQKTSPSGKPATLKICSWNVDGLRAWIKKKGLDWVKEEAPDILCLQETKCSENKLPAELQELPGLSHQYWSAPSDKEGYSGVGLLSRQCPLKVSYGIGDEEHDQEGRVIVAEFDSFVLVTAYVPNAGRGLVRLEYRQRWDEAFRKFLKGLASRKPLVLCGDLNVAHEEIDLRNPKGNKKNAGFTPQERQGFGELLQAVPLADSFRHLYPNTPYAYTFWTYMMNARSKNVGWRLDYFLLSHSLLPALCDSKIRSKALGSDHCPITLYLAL
- protocol: qHTS Validation Assay for Inhibitors of the Human Apurinic/apyrimidinic Endonuclease 1 (APE1) (AID 1705;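 also: TAMRA fluorescence gain over two minutes as APE1 cuts a quenched THF abasic duplex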)
- applied-conditions: purified APE1 endonuclease activity, fluorescence, titration; series mostly up to 57.1 µM
- From the text: Assay Provider: David M. Wilson, III, National Institute on Aging, NIH Screening Center PI: Austin, C.P. Screening Center: NIH Chemical Genomics Center [NCGC] […] Three uL of enzyme were dispensed to 1536-well Greiner black solid bottom plates. […] The plates were immediately transferred into ViewLux High-throughput CCD imager (Perkin-Elmer) in order to measure the reaction progress in kinetic mode (three reads every 60 seconds) using 525 nm excitation and 598 nm emission fluorescence protocol. […]
Inconclusive results are not listed. Calls of active or inactive are those of the source. Calls follow the shape of the dose curve; as a rule, active = well fitted inhibition curve with a large enough effect; inconclusive = small, poorly fitted or top-dose-only effect; inactive = flat fitted curve, though single readings scatter.
The categories you may choose from are active, inactive

[
  {
    "molecule": "O=C(c1cc(O)c(O)c([N+](=O)[O-])c1)c1ccccc1F",
    "assigned-class": "inactive"
  },
  {
    "molecule": "CN1[C@@H](CC(=O)c2ccccc2)CCC[C@H]1C[C@H](O)c1ccccc1",
    "assigned-class": "inactive"
  },
  {
    "molecule": "CN1CCc2ccccc2Cc2[nH]c3ccccc3c2CC1",
    "assigned-class": "inactive"
  }
]

# lookup: test call for CC1CN(S(=O)(=O)c2cccc3cnccc23)CCN1 (configuration not stated)
inactive

Name the outcome recorded for `CN(C)C(N)=NCCC[C@H](N)C(=O)O` in the assay.
inactive

Hey, what did the test say about `c1cnc2c(c1)ccc1cccnc12` ?
inactive

# fetch the recorded call for CC(C)(C)NCC(O)COc1nsnc1N1CCOCC1 (configuration not stated) here
inactive

// param item: `COC1=C(OC)C(=O)c2ccccc2C1=O` ; yields the recorded call
inactive

How did this test come out for `Ic1ccc(N2CCN(Cc3c[nH]c4ncccc34)CC2)cc1` ?
inactive

Given `NC(=O)C(=O)O` , state the outcome it received in this test.
inactive

Returns: the outcome recorded for `O=C(O)c1cc(=O)c2c(Cl)cc(Cl)cc2[nH]1` in this assay.
inactive

====

- system: Chromobox protein homolog 1 (Homo sapiens)
- protocol: qHTS Validation Assay for Inhibitors of HP1-beta Chromodomain Interactions with Methylated Histone Tails (AID 488953); also: nearly all actives have a fitted effect of over 50% in size
- applied-conditions: HP1-beta chromodomain / methylated histone peptide binding assay; series mostly up to 114 µM
- From the text: As our understanding of epigenetics expands, it is becoming clear that players in this field are potential targets for drug development. […] Low-affinity protein-protein interactions (Kd in the single- to double-digit micromolar range) such as those discussed here have been very difficult to assay by traditional techniques such as fluorescence polarization or fluorescence resonance energy transfer. […]
Records with an inconclusive call do not appear. Activity calls are given as the source filed them. The call rests on the fitted dose curve; in most records, active means well fitted inhibition curve with a large enough effect; inconclusive means small, poorly fitted or top-dose-only effect; inactive means no such curve, though single readings can be large or run the other way.
Respond with a class label; see active, inactive

[
  {
    "compound": "CC(=O)N[C@H](C(=O)O)C(C)(C)SN=O",
    "system": "Chromobox protein homolog 1 (Homo sapiens)",
    "assigned-class": "inactive"
  }
]

# lookup: test call for `O=c1[nH]c2cc(Cl)c(Cl)cc2[nH]c1=O`
inactive

For `COC(=O)c1c(C)[nH]c(C)c1C(=O)c1ccccc1Cc1ccccc1` , which call appears in the assay record?
active

Which outcome was assigned to `N#C/C(=C\c1ccc(O)c(O)c1)C(=O)NCCCc1ccccc1` in this test?
active

How did this test come out for NC(=O)C1=CN(C2OC(COP(=O)(O)OP(=O)(O)OC[C@H]3O[C@@H](n4cnc5c(N)ncnc54)[C@H](OP(=O)(O)O)[C@@H]3O)C(O)C2O)C=CC1 (stereo not given in full) ?
active

How did this test come out for `O=[N+]([O-])c1ccc(CSc2ncnc3c2ncn3[C@@H]2O[C@H](CO)[C@@H](O)[C@H]2O)cc1` ?
inactive

Kindly provide the recorded test outcome for the following compound: NC(=S)c1ccc[n+]([C@@H]2O[C@@H](COP(=O)([O-])OP(=O)(O)OC[C@H]3O[C@@H](n4cnc5c(N)ncnc54)[C@H](OP(=O)(O)O)[C@@H]3O)C(O)C2O)c1 (stereo not given in full)
active

Give the logged outcome of this assay for the following compound: `COc1cc2c(CCNC(C)=O)c[nH]c2cc1Cl`
inactive

Where do the numbers come from? From PubChem BioAssay (NCATS).
